The values you see were collected from patent EP1200395B1.

Target: CCR-3 (Homo sapiens)
Assay: Eotaxin-induced chemotaxis of CCR-3 transfectant cells (CCR3/U937)
Type: cell-based
Design: expressed in transfected cells; host or cells: U937
Settings: 10 µM test compound; eotaxin 1 x 10^-9 M; CCR3/U937 cells (Table 3a)

molecule | unit_of_measurement | Chemotaxis Assay 10 µM (inhibition %)
COC(=O)CCCN(CCCNC(=O)Nc1ccc(Br)cc1)Cc1ccncc1 [Compound 48] | % | 34
CC(c1ccc2ccccc2c1)N(CCCNC(=O)Nc1ccc(Br)cc1)CCCC(=O)O (centres unmarked) [Compound 270] | % | 100
COC(=O)CCCN(CCCNC(=O)Nc1ccc(C)cc1)C1CCCc2ccccc21 (centres unmarked) [Compound 34] | % | 96
COC(=O)CCCN(CCCNC(=O)Nc1ccccc1-c1ccccc1)C1CCCc2ccccc21 (centres unmarked) [Compound 54] | % | 19
CCN(CCCNC(=O)Nc1ccccc1)CCc1cccc(Cl)c1 [Compound 233] | % | 100
CC(c1cccc2ccccc12)N(CCCNC(=O)Nc1ccc(Br)cc1)CCCC(=O)O (centres unmarked) [Compound 268] | % | 100
N#Cc1ccc(CN(CCCNC(=O)Nc2ccccc2)CCc2ccc(Cl)cc2)cc1 [Compound 291] | % | 53
CCOC(=O)CCCN(CCCNC(=O)Nc1ccc(Br)cc1)C1CCCc2ccccc21 (centres unmarked) [Compound 184] | % | 100

====

Collected inhibition at 10 µM values appear next to each entry.
Biological target: UniProtKB P51677
Sequence (P51677 1-355): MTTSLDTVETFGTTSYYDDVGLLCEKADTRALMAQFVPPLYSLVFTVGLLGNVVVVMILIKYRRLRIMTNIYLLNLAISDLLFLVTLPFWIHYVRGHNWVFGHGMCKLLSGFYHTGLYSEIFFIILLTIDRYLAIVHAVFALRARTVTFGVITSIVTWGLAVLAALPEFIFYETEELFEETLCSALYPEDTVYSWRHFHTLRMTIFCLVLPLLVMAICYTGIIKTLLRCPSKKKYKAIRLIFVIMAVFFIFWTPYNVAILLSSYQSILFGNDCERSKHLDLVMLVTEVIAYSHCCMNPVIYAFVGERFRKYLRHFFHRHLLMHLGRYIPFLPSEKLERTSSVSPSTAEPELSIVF
Assay: Eotaxin-induced chemotaxis of CCR-3 transfectant cells (CCR3/U937)
Type: cell-based
Parameters: expressed in transfected cells; host or cells: U937
Settings: U-937; 10 µM test compound; eotaxin 1 x 10^-9 M; CCR3/U937 cells (Table 3a)
property: inhibition at 10 µM (%)

compound | recorded_measurement
COc1ccc(CN(CCCNC(=O)Nc2ccccc2)CCc2ccc(Cl)cc2)cc1 | 58
O=C(NCCCN(CCc1ccc(Cl)cc1)CCc1ccc(Cl)cc1)Nc1ccccc1 | 69
O=C(O)CCCN(CCCNC(=O)Nc1ccc(Br)cc1)[C@@H]1CCCc2ccccc21 | 100
CCOC(=O)c1ccc(NC(=O)NCCCN(CCCC(=O)O)C2CCCc3ccccc32)cc1 (centres unmarked) | 100
O=C(NCCCN(CCCc1nnn[nH]1)C1CCCc2ccccc21)Nc1ccc(Br)cc1 (centres unmarked) | 99
CCCN(CCCNC(=O)Nc1ccccc1)CCc1ccc(Cl)cc1 | 99
O=C(O)CCCN(CCCCCNC(=O)Nc1ccc(Br)cc1)C1CCCc2ccccc21 (centres unmarked) | 100
O=C(CCCN(CCCNC(=O)Nc1ccc(Br)cc1)C1CCCc2ccccc21)NS(=O)(=O)c1ccccc1 (centres unmarked) | 100
CCN(CCCNC(=O)Nc1ccc([N+](=O)[O-])cc1)CCc1ccc(Cl)cc1 | 100
O=C(NCCCN(CCc1ccccc1)CCc1ccc(Cl)cc1)Nc1ccccc1 | 88
CC(c1ccc(F)cc1)N(CCCNC(=O)Nc1ccc(Br)cc1)CCCC(=O)O (centres unmarked) | 100
C[C@@H](c1ccc(Br)cc1)N(CCCNC(=O)Nc1ccc(Br)cc1)CCCC(=O)O | 95
O=C(O)CCCN(CCCNC(=O)Nc1ccc(Br)cc1)C1CCCc2ccccc21 (centres unmarked) | 98
CCN(CCCNC(=O)Nc1ccccc1)CCc1ccc(Cl)cc1 | 100
O=C(NCCCN(CCc1ccc(Cl)cc1)Cc1cccnc1)Nc1ccccc1 | 82
CCN(CCCNC(=O)Nc1ccc(Br)cc1)CCc1ccc(Cl)cc1 | 100
COc1ccc([C@@H](C)N(CCCNC(=O)Nc2ccc(Br)cc2)CCCC(=O)O)cc1 | 100
